assay: gradient 5% acetonitrile 3 min, to 50% in 2 min, to 85% in 15 min, held 3 min, 100 µL/min
experimental_conditions: column: Zorbax Extend-C18 2.1 x 50 mm; eluents: water / acetonitrile, 0.1% formic acid
Tag: true if measured RP-LC retention time is not below 700 s, false if it is.

Prompt: For this molecule, is measured RP-LC retention time 700 s or higher? CCc1ccc(NC(=O)N2CCC3(CC2)NC(=O)c2ccccc2N3C)cc1
Completion: true

====

Entries annotated with measured RP-LC retention time
assay: gradient 5% acetonitrile 3 min, to 50% in 2 min, to 85% in 15 min, held 3 min, 100 µL/min
experimental_conditions: column: Zorbax Extend-C18 2.1 x 50 mm; eluents: water / acetonitrile, 0.1% formic acid
All answers are understood in s, so give the number only.

compound	data_value
O=C(NCCn1c(=O)n(Cc2ccc(F)cc2)c2cccnc21)c1ccc2c(c1)OCO2	778
CCOC(=O)c1sc(NC(=O)c2ccco2)nc1-c1ccccc1	899
CN1CCN(C(=O)C2CCN(S(=O)(=O)c3cc4c(cc3Cl)NC(=O)CO4)CC2)CC1	580
Cn1cnc(S(=O)(=O)N2CCCN(S(=O)(=O)Cc3ccccc3)CCNC(=O)CC2c2ccccc2)c1 (stereo not drawn)	711

Prompt: Recorded RP-LC retention time of O=c1c(S(=O)(=O)N2CCCCCC2)cccn1Cc1ccc(F)cc1 , please.
Completion: 933

Prompt: Continue with COc1cc(-c2oc3cc(O)cc(O)c3c(=O)c2OC[C@@H]2OC(O[C@@H]3O[C@@H](C)[C@H](O)[C@@H](O)[C@H]3O)[C@@H](O)[C@H](O)[C@@H]2O)ccc1O (stereo partly drawn)
Completion: 638

Prompt: How about CC(C)CCC(=O)N1CCC2(CC1)N(C)C(=O)CS2(=O)=O ?
Completion: 644

Prompt: Next: CC(C)NC(=O)c1cccc2c1CCN2C(=O)C1CC1
Completion: 700

Prompt: Another compound to check: COc1ccc(-c2nc3ncccn3c2NCc2ccc(Cl)cc2)cc1OC
Completion: 717

Prompt: What do we get for COC(=O)C1=C(N)Oc2cc(C)n(CCN(C)C)c(=O)c2C1c1cccc(OC)c1 (stereo not drawn) ?
Completion: 609

Prompt: Try c1cc(-c2nc(-c3ccc4c(c3)ncn4CCN3CCCCC3)no2)cs1 next.
Completion: 609

Prompt: Input COCCn1cc(CCNC(=O)Nc2ccc(Br)cc2F)c2cccnc21
Completion: 834

Prompt: // next record O=C(COc1ccc(F)cc1)N1CCN(Cc2noc3ccccc23)CC1
Completion: 726

====

assay: gradient 5% acetonitrile 3 min, to 50% in 2 min, to 85% in 15 min, held 3 min, 100 µL/min
experimental_conditions: column: Zorbax Extend-C18 2.1 x 50 mm; eluents: water / acetonitrile, 0.1% formic acid
Label 1 (yes) when RP-LC retention time < 700 s; otherwise 0 (no).

compound	group_label
COc1ccc(C2CC(=O)N(c3ccc(F)cc3F)C(=O)C2)cc1	0 (no)
O=S(=O)(c1ccc(-c2cnc(C3CCCC3)o2)s1)N1CCN(c2ncccn2)CC1	0 (no)
c1ccc(-c2nnc(Cc3nc(-c4ccc5c(c4)OCO5)no3)o2)cc1	0 (no)

Prompt: Threshold test, RP-LC retention time < 700 s: COc1cccc2c1OC1(C)CC2C(S(=O)(=O)c2ccc(Cl)cc2)C(=O)N1C (configuration not stated)
Completion: 0 (no)

Prompt: Same for CSc1ccccc1CN1CCC(CNC(=O)C(=O)NCCC2=CCCCC2)CC1
Completion: 1 (yes)

Prompt: For O=C(CN1C(=O)C2CCCCN2c2ccc(C(=O)N3CCCC3)cc21)NCCCN1CCCCCC1 (configuration not stated) then?
Completion: 1 (yes)

Prompt: What do you have for O=C(Cn1nc2c(cc1=O)CCCC2)Nc1ccc(Br)cc1 ?
Completion: 0 (no)

Prompt: Please answer likewise for COc1ccc(C(=O)N2CCC3(CC2)NC(=O)c2ccccc2N3C)cc1OC
Completion: 1 (yes)

Prompt: Another compound to check: CCc1ccc(-n2nc(CO)c(C(=O)NCc3ccc4c(c3)OCO4)n2)cc1
Completion: 0 (no)

====

Listing of recorded RP-LC retention time by entry.
assay: gradient 5% acetonitrile 3 min, to 50% in 2 min, to 85% in 15 min, held 3 min, 100 µL/min
experimental_conditions: column: Zorbax Extend-C18 2.1 x 50 mm; eluents: water / acetonitrile, 0.1% formic acid
Provide only the numeric value, understood in s.

compound	reading_unit	RP-LC retention time
Cc1cc(C)cc(C(=O)N2CCCC(COc3ccc(C(=O)NC(C)C)cc3)C2)c1 (stereo not drawn)	s	931
O=C(Cc1ccc(NC(=O)CCS(=O)(=O)c2ccccc2)cc1)NCc1cccs1	s	701

With those in mind, consider the next compound.
Prompt: Which RP-LC retention time value is on record for CCCNC(=O)C1CC(=O)N(CCc2c[nH]c3ccc(F)cc23)C1 (stereo not drawn) ?
Completion: 684

====

assay: gradient 5% acetonitrile 3 min, to 50% in 2 min, to 85% in 15 min, held 3 min, 100 µL/min
experimental_conditions: column: Zorbax Extend-C18 2.1 x 50 mm; eluents: water / acetonitrile, 0.1% formic acid
assay_endpoint: RP-LC retention time (s)
Provide only the numeric value, understood in s.

The following compounds have reported results that may help.
compound	assay_endpoint	data_value
CCCc1nnsc1C(=O)NCCCC(=O)Nc1cccc2cccnc12	RP-LC retention time	791
COc1ccc(Br)cc1C1C(C(=O)N2CCOCC2)=C(C)NC2=C1C(=O)CC(C)(C)C2 (stereo not given)	RP-LC retention time	683
CC(C)NC(=O)c1cccn(-c2ccc(NC(=O)C(C)(C)C)cc2)c1=O	RP-LC retention time	749
CCc1ccc(S(=O)(=O)NCCc2csc(-c3cccnc3)n2)s1	RP-LC retention time	734

Could you now look at the following compound, please?
Prompt: Any idea what its RP-LC retention time is? The compound is Cc1cc(S(=O)(=O)N2CC(Cc3nncn3C3CCCC3)C2)ccc1Cl
Completion: 785

====

assay: gradient 5% acetonitrile 3 min, to 50% in 2 min, to 85% in 15 min, held 3 min, 100 µL/min
experimental_conditions: column: Zorbax Extend-C18 2.1 x 50 mm; eluents: water / acetonitrile, 0.1% formic acid
assay_endpoint: RP-LC retention time (s)
Response body: numeric value in s, unit text excluded.

compound	reading_unit	RP-LC retention time
COc1cc(OC)cc(C(=O)N2CCc3cc(-c4csc(C)n4)ccc32)c1	s	977
COc1ccc(NC(=O)N2CCN(c3cc(-c4ccc(OC)c(OC)c4)ncn3)CC2)cc1OC	s	620
O=C(c1cnccn1)N1CCCC1c1nc(-c2ccc(F)cc2F)no1 (configuration not stated)	s	782
CS(=O)(=O)c1ccc2nc(NC(=O)CN3C(=O)CCC3=O)sc2c1	s	582
O=C(Cn1ccn2nc(-c3ccccc3)c(CO)c2c1=O)Nc1ccccc1	s	781
CCS(=O)(=O)N1CC(=O)N(c2cccc(C)c2C)C(C)(C(=O)NCc2ccc(F)cc2)C1 (configuration not stated)	s	848

Let us examine a further case.
Prompt: Given the compound COc1ccc(C(=O)N2CCC3(CC2)NC(=O)c2cc(F)ccc2N3C)cc1OC , what is its reported RP-LC retention time?
Completion: 715

====

assay: gradient 5% acetonitrile 3 min, to 50% in 2 min, to 85% in 15 min, held 3 min, 100 µL/min
experimental_conditions: column: Zorbax Extend-C18 2.1 x 50 mm; eluents: water / acetonitrile, 0.1% formic acid
Binned RP-LC retention time; ranges: bin A = under 700 s, bin B = from 700 s up to 800 s, bin C = 800 s and over

compound	group_label
CCn1nc(CNC(=O)c2ccc(F)c(F)c2)c2ccccc21	bin C
Cc1ccc(C)c(NC(=O)Nc2ccc3nncn3c2)c1	bin B
Cc1ccc(NC(=O)CSc2ccc(N3CCCC(C(=O)NC4CC4)C3)nn2)cc1F (stereo unspecified)	bin A
O=C(NCCc1csc(-c2ccccc2)n1)[C@H]1CCCN1S(=O)(=O)c1cccc2nsnc12	bin C
Cc1ccoc1C(=O)N1CCCn2ccnc2C1c1cnn(C)c1 (stereo unspecified)	bin A

Prompt: Into which category would you place O=C(Nc1ccc2c(c1)OCCO2)N1CC[C@@H]2COC(=O)N(Cc3ccccc3)[C@@H]2C1 ?
Completion: bin B

Prompt: Next record, please: CCS(=O)(=O)N1CC(=O)N(c2ccc(C)c(F)c2)C(C)(C(=O)NC2CCCCCC2)C1 (stereo unspecified)
Completion: bin C

Prompt: Same again, this time with O=C(NCc1ccco1)c1cn(-c2cc(N3CCOCC3)ncn2)cn1
Completion: bin A

Prompt: Now try Cc1nn2c(CNC(=O)C3CCN(C(=O)c4ccccc4)CC3)c(C)nc2s1 .
Completion: bin A

====

assay: gradient 5% acetonitrile 3 min, to 50% in 2 min, to 85% in 15 min, held 3 min, 100 µL/min
experimental_conditions: column: Zorbax Extend-C18 2.1 x 50 mm; eluents: water / acetonitrile, 0.1% formic acid
Returns TRUE if the recorded RP-LC retention time is greater than or equal to 800 s, and FALSE otherwise.

Prompt: hey, is RP-LC retention time for this one >= 800 s? COc1ccc(OCC(=O)N2CCN(c3cc(C)n4c(C)nnc4n3)CC2)cc1
Completion: FALSE

Prompt: # iterate: CCOc1ccc2nc(Nc3ncc4c(n3)CC(c3ccc(F)cc3)CC4=O)nc(C)c2c1 (centres undefined)
Completion: TRUE

Prompt: Entry COc1ccc(-c2ccc(=O)n(Cc3nc(-c4ccc(Cl)c(F)c4)no3)n2)cc1 please
Completion: TRUE

Prompt: Then this compound: CCCCOc1ccc(NC(=O)Nc2ccc(N3CCCS3(=O)=O)cc2)cc1
Completion: TRUE

Prompt: Query Clc1ccccc1-c1nc(-c2ccc(-n3ccnc3)nc2)no1 next
Completion: FALSE
